The origin of these recorded values is the supplement of paper PMC10307832.

Test system: SK-LU-1
Test name: relative viability (nuclei count vs DMSO), 5 days (fraction); higher = more cells survive
Particulars: first compound 0.005 µM
Test readout: relative viability

Compound	System name	Result
COc1cc2nccc(Oc3ccc(NC(=O)Nc4cc(C)on4)c(Cl)c3)c2cc1OC [Tivozanib] + Cc1cc(Nc2cc(N3CCN(C)CC3)nc(Sc3ccc(NC(=O)C4CC4)cc3)n2)n[nH]1 [Tozasertib] (partner 0.1 µM)	SK-LU-1	0.332

## Task Fill in reported relative viability for this entry: COc1cc2nccc(Oc3ccc(NC(=O)Nc4cc(C)on4)c(Cl)c3)c2cc1OC [Tivozanib] + C[C@]1(O)C[C@@H](c2nc(-c3ccc4ccc(-c5ccccc5)nc4c3)c3c(N)nccn32)C1 [Linsitinib] (partner 1 µM)
## Result 0.979

## Task For Nc1ccn([C@@H]2O[C@H](CO)[C@@H](O)[C@@H]2O)c(=O)n1 [Cytarabine] + CC1(C)CCC(c2ccc(Cl)cc2)=C(CN2CCN(c3ccc(C(=O)NS(=O)(=O)c4ccc(N[C@H](CCN5CCOCC5)CSc5ccccc5)c(S(=O)(=O)C(F)(F)F)c4)cc3)CC2)C1 [Navitoclax] (partner 0.5 µM) , write its relative viability.
## Result 0.775

----------
Test system: NCI-H2126
Test name: relative viability (nuclei count vs DMSO), 5 days (fraction); higher = more cells survive
Particulars: first compound 0.006325 µM
Test readout: relative viability
Keep it simple and answer with nothing but the number.

Compound	relative viability
CC(=O)O[C@@]12CO[C@@H]1C[C@H](O)[C@@]1(C)C(=O)[C@H](O)C3=C(C)[C@@H](OC(=O)[C@H](O)[C@@H](NC(=O)OC(C)(C)C)c4ccccc4)C[C@@](O)([C@@H](OC(=O)c4ccccc4)[C@H]21)C3(C)C [Docetaxel] + O=C(c1cc(Cc2n[nH]c(=O)c3ccccc23)ccc1F)N1CCN(C(=O)C2CC2)CC1 [Olaparib] (partner 8 µM)	0.348
CC(=O)O[C@@]12CO[C@@H]1C[C@H](O)[C@@]1(C)C(=O)[C@H](O)C3=C(C)[C@@H](OC(=O)[C@H](O)[C@@H](NC(=O)OC(C)(C)C)c4ccccc4)C[C@@](O)([C@@H](OC(=O)c4ccccc4)[C@H]21)C3(C)C [Docetaxel] + Nc1ncn([C@H]2C[C@H](O)[C@@H](CO)O2)c(=O)n1 [Decitabine] (partner 2 µM)	0.387
CC(=O)O[C@@]12CO[C@@H]1C[C@H](O)[C@@]1(C)C(=O)[C@H](O)C3=C(C)[C@@H](OC(=O)[C@H](O)[C@@H](NC(=O)OC(C)(C)C)c4ccccc4)C[C@@](O)([C@@H](OC(=O)c4ccccc4)[C@H]21)C3(C)C [Docetaxel] + CC(=O)c1c(C)c2cnc(Nc3ccc(N4CCNCC4)cn3)nc2n(C2CCCC2)c1=O [Palbociclib] (partner 0.5 µM)	0.261
CC(=O)O[C@@]12CO[C@@H]1C[C@H](O)[C@@]1(C)C(=O)[C@H](O)C3=C(C)[C@@H](OC(=O)[C@H](O)[C@@H](NC(=O)OC(C)(C)C)c4ccccc4)C[C@@](O)([C@@H](OC(=O)c4ccccc4)[C@H]21)C3(C)C [Docetaxel] + C[C@@H](Oc1cc(-c2cnn(C3CCNCC3)c2)cnc1N)c1c(Cl)ccc(F)c1Cl [Crizotinib] (partner 1 µM)	0.382
CC(=O)O[C@@]12CO[C@@H]1C[C@H](O)[C@@]1(C)C(=O)[C@H](O)C3=C(C)[C@@H](OC(=O)[C@H](O)[C@@H](NC(=O)OC(C)(C)C)c4ccccc4)C[C@@](O)([C@@H](OC(=O)c4ccccc4)[C@H]21)C3(C)C [Docetaxel] + CC1(C)CCC(c2ccc(Cl)cc2)=C(CN2CCN(c3ccc(C(=O)NS(=O)(=O)c4ccc(N[C@H](CCN5CCOCC5)CSc5ccccc5)c(S(=O)(=O)C(F)(F)F)c4)cc3)CC2)C1 [Navitoclax] (partner 0.5 µM)	0.334
CC(=O)O[C@@]12CO[C@@H]1C[C@H](O)[C@@]1(C)C(=O)[C@H](O)C3=C(C)[C@@H](OC(=O)[C@H](O)[C@@H](NC(=O)OC(C)(C)C)c4ccccc4)C[C@@](O)([C@@H](OC(=O)c4ccccc4)[C@H]21)C3(C)C [Docetaxel] + Cc1nc(NC(=O)N2CCC[C@H]2C(N)=O)sc1-c1ccnc(C(C)(C)C(F)(F)F)c1 [Alpelisib] (partner 2 µM)	0.321

In the following, a different compound is considered.
## Task Send back NCI-H2126 relative viability of CC(=O)O[C@@]12CO[C@@H]1C[C@H](O)[C@@]1(C)C(=O)[C@H](O)C3=C(C)[C@@H](OC(=O)[C@H](O)[C@@H](NC(=O)OC(C)(C)C)c4ccccc4)C[C@@](O)([C@@H](OC(=O)c4ccccc4)[C@H]21)C3(C)C [Docetaxel] + CS(=O)(=O)CCNCc1ccc(-c2ccc3ncnc(Nc4ccc(OCc5cccc(F)c5)c(Cl)c4)c3c2)o1 [Lapatinib] (partner 2 µM) only.
## Result 0.395
